A collection of compounds and their measured pIC50
System: Plasmodium falciparum
ASSAY_PROTOCOL: Antiplasmodial activity against chloroquine-resistant Plasmodium falciparum W2
Assay type: functional, organism-based
Expect pIC50 as a plain number equal to -log10 of the molar concentration.

Sample records with pIC50:
[[record]]
smiles_entry = "O=C1[C@@H](n2cc(-c3ccccc3)nn2)[C@@H](/C=C/c2ccccc2)N1c1ccccc1"
result_number = 4.93

[[record]]
smiles_entry = "O=C1[C@@H](n2cc(-c3ccccc3)nn2)[C@@H](/C=C/c2ccccc2)N1C1CCCCC1"
result_number = 6.00

[[record]]
smiles_entry = "Cc1ccc(N2C(=O)[C@@H](n3cc(-c4ccccc4)nn3)[C@H]2/C=C/c2ccccc2)cc1"
result_number = 6.00


Now for the compound whose pIC50 we want.
Determine from records and report pIC50 for O=C1[C@@H](n2cc(-c3ccccc3)nn2)[C@@H](/C=C/c2ccccc2)N1c1ccc(Cl)cc1 6.00

====

A collection of compounds and their measured pIC50
System: Plasmodium falciparum
ASSAY_PROTOCOL: Antiplasmodial activity against chloroquine-resistant Plasmodium falciparum W2
Type: functional, organism-based
pIC50: −log10 of the molar value.

[[record]]
smiles_entry = "COC(=O)c1nnn([C@@H]2C(=O)N(c3ccc(Cl)cc3)[C@@H]2/C=C/c2ccccc2)c1C(=O)OC"
target_or_system = "Plasmodium falciparum"
result = "< 4.70"

[[record]]
smiles_entry = "COC(=O)c1nnn([C@@H]2C(=O)N(c3ccc(C)cc3)[C@@H]2/C=C/c2ccccc2)c1C(=O)OC"
target_or_system = "Plasmodium falciparum"
result = "< 4.70"


Determine from records and report pIC50 for COC(=O)c1nnn([C@@H]2C(=O)N(C3CCCCC3)[C@@H]2/C=C/c2ccccc2)c1C(=O)OC < 4.70
